Each recorded value in this set is attributed to BigSolDB 2.1.

- Test Conditions: in ethanol, 303.15 K
Quantity Kind: solubility (mole fraction)
Number only, please.

*Q* Look up solubility (mole fraction) of `CCCNS(=O)(=O)Nc1ncnc(OCCOc2ncc(Br)cn2)c1-c1ccc(Br)cc1` and report it.
*A* 0.000293

---

- Test Conditions: in methanol, 298.15 K
Quantity Kind: solubility (mole fraction)

*Q* Hello, please tell me recorded solubility (mole fraction) for this one: `CCCNS(=O)(=O)Nc1ncnc(OCCOc2ncc(Br)cn2)c1-c1ccc(Br)cc1`
*A* 0.000284

---

- Test Conditions: in ethanol, 278.15 K
Quantity Kind: solubility (mole fraction)
The reply should be a number, written without any unit.

*Q* Give the value of solubility (mole fraction) reported for the following: `CCCNS(=O)(=O)Nc1ncnc(OCCOc2ncc(Br)cn2)c1-c1ccc(Br)cc1`
*A* 8.8e-05

---

- Test Conditions: in isopropanol, 313.15 K
Quantity Kind: solubility (mole fraction)
Just the number.

*Q* Look up and state reported solubility (mole fraction) for `CCCNS(=O)(=O)Nc1ncnc(OCCOc2ncc(Br)cn2)c1-c1ccc(Br)cc1`
*A* 0.000246

---

- Test Conditions: in ethanol, 293.15 K
Quantity Kind: solubility (mole fraction)
Provide a numeric answer; units are not to be included.

*Q* Given the molecule `CCCNS(=O)(=O)Nc1ncnc(OCCOc2ncc(Br)cn2)c1-c1ccc(Br)cc1` , write its reported solubility (mole fraction).
*A* 0.000188

---

- Test Conditions: in methanol, 313.15 K
Quantity Kind: solubility (mole fraction)
Please respond with just the number, no unit label.

*Q* Retrieve solubility (mole fraction) measured for `CCCNS(=O)(=O)Nc1ncnc(OCCOc2ncc(Br)cn2)c1-c1ccc(Br)cc1` and print it.
*A* 0.000602

---

- Test Conditions: in ethyl acetate, 288.15 K
Quantity Kind: solubility (mole fraction)
# respond with the number and nothing more

*Q* # return recorded solubility (mole fraction) for entry `CCCNS(=O)(=O)Nc1ncnc(OCCOc2ncc(Br)cn2)c1-c1ccc(Br)cc1`
*A* 0.00577

---

- Test Conditions: in ethyl acetate, 313.15 K
Quantity Kind: solubility (mole fraction)
Quick one: just the number, no unit, thanks!

*Q* Supply recorded solubility (mole fraction) for `CCCNS(=O)(=O)Nc1ncnc(OCCOc2ncc(Br)cn2)c1-c1ccc(Br)cc1` here.
*A* 0.0122

---

- Test Conditions: in ethyl acetate, 303.15 K
Quantity Kind: solubility (mole fraction)
I'd appreciate a reply containing only the number, no unit.

*Q* Tell me measured solubility (mole fraction) for `CCCNS(=O)(=O)Nc1ncnc(OCCOc2ncc(Br)cn2)c1-c1ccc(Br)cc1` please.
*A* 0.00921

---

- Test Conditions: in ethanol, 298.15 K
Quantity Kind: solubility (mole fraction)
Answer as a number with no unit attached.

*Q* Report solubility (mole fraction) for `CCCNS(=O)(=O)Nc1ncnc(OCCOc2ncc(Br)cn2)c1-c1ccc(Br)cc1`
*A* 0.000234
